These measurements were taken from patent US8846699B2.

- Test system: skin cancer cell line, A431
- protocol_description: Inhibitory effect on growth of cancer cell line A431, SRB
- Type: cell-based
- assay_context: Homo sapiens, A-431, 72 h, overexpressed EGFR1 (HER-1)
quantity: IC50 (nM)
Give the number; nM is assumed, so skip it.

Worked examples follow.
In [3]: df
Out[3]:
                                   compound  quantity  data_value
0  C=CC(=O)Nc1cc2c(Nc3ccc(Br)cc3F)ncnc2cc1OCCNC(=O)CN1CCN(C)CC1      IC50          15
1  C=CC(=O)Nc1cc2c(Nc3ccc(Br)cc3F)ncnc2cc1OC[C@@H](C)NC(C)=O      IC50          35

QUERY: # IC50 lookup, item C=CC(=O)Nc1cc2c(Nc3cc(Cl)c(Cl)cc3F)ncnc2cc1OCCNC(C)=O
RESULT: 7

QUERY: # IC50 lookup, item C=CC(=O)Nc1cc2c(Nc3ccc(Br)cc3F)ncnc2cc1OC1CCCN(C(C)=O)C1 (stereo not drawn)
RESULT: 368

QUERY: # IC50 lookup, item C=CC(=O)Nc1cc2c(Nc3ccc(Br)c(F)c3F)ncnc2cc1OCCNC(=O)CCN1CCCCC1
RESULT: 1250

QUERY: # IC50 lookup, item C=CC(=O)Nc1cc2c(Nc3c(F)cc(Br)cc3F)ncnc2cc1OCCNC(=O)CN(C)C
RESULT: 181

QUERY: # IC50 lookup, item C=CC(=O)Nc1cc2c(Nc3ccc(Br)cc3F)ncnc2cc1OCCNC(=O)NCCC
RESULT: 35

QUERY: # IC50 lookup, item C=CC(=O)Nc1cc2c(Nc3ccc(Br)cc3F)ncnc2cc1OCCNC(=O)COC
RESULT: 16

QUERY: # IC50 lookup, item COc1cc2c(Nc3ccc(Br)cc3F)ncnc2cc1OCC1CCN(C)CC1 [Control 2, ZD6474, reference compound]
RESULT: 28

QUERY: # IC50 lookup, item C=CC(=O)Nc1cc2c(Nc3ccc(Cl)cc3F)ncnc2cc1OCCNC(=O)CN(C)C
RESULT: 437

QUERY: # IC50 lookup, item C=CC(=O)Nc1cc2c(Nc3ccc(Br)cc3F)ncnc2cc1OCC1CCN(C(N)=O)CC1
RESULT: 25

QUERY: # IC50 lookup, item C=CC(=O)Nc1cc2c(Nc3ccc(Br)cc3F)ncnc2cc1OCCNC(=O)C1CC1
RESULT: 20

----------
- System: breast cancer cell line, SK-Br3
- protocol_description: Inhibitory effect on growth of cancer cell line SK-Br3, SRB
- Format: cell-based
- assay_context: Homo sapiens, SK-BR-3, 72 h, overexpressed EGFR2 (HER-2)
quantity: IC50 (nM)
Give the number; nM is assumed, so skip it.

Worked examples follow.
>>> df
                                   compound  result_units  data_value
0  C=CC(=O)Nc1cc2c(Nc3ccc(Br)cc3F)ncnc2cc1OCCNC(=O)N1CCN(C(C)=O)CC1 [Example 95]            nM         236
1  C=CC(=O)Nc1cc2c(Nc3cc(Cl)c(Cl)cc3F)ncnc2cc1OCCNC(=O)COC [Example 138]            nM          39
2  C=CC(=O)Nc1cc2c(Nc3ccc(Br)cc3F)ncnc2cc1OCCNC(=O)OC [Example 63]            nM         198
3  C=CC(=O)Nc1cc2c(Nc3ccc(Br)cc3F)ncnc2cc1OCCNC(=O)CCN(C)C [Example 61]            nM          59
4  C=CC(=O)Nc1cc2c(Nc3ccc(Br)c(F)c3F)ncnc2cc1OCCNC(=O)CN(C)C [Example 124]            nM          60

QUERY: # IC50 lookup, item C=CC(=O)Nc1cc2c(Nc3ccc(Br)c(Cl)c3F)ncnc2cc1OCCNC(=S)NCC [Example 170]
RESULT: 43

QUERY: # IC50 lookup, item C=CC(=O)Nc1cc2c(Nc3ccc(Br)cc3F)ncnc2cc1OCCNC(=O)COC [Example 44]
RESULT: 98

QUERY: # IC50 lookup, item C=CC(=O)NCCOc1cc2ncnc(Nc3ccc(Br)cc3F)c2cc1NC(=O)C=C [Example 26]
RESULT: 80

QUERY: # IC50 lookup, item C=CC(=O)Nc1cc2c(Nc3ccc(Br)cc3F)ncnc2cc1OCCCNC [Example 17]
RESULT: 64

QUERY: # IC50 lookup, item C=CC(=O)Nc1cc2c(Nc3ccc(Br)cc3F)ncnc2cc1OCC(CC)NC(=O)CN(C)C (stereo not shown) [Example 160]
RESULT: 96

QUERY: # IC50 lookup, item C=CC(=O)Nc1cc2c(Nc3ccc(Br)cc3F)ncnc2cc1OCCCNC(=O)CC [Example 87]
RESULT: 288

QUERY: # IC50 lookup, item C=CC(=O)Nc1cc2c(Nc3ccc(Br)c(Cl)c3F)ncnc2cc1OCCNC(=O)CCO [Example 145]
RESULT: 58

QUERY: # IC50 lookup, item C=CCCOc1cc2ncnc(Nc3ccc(Br)cc3F)c2cc1NC(=O)C=C [Example 31]
RESULT: 55

QUERY: # IC50 lookup, item C=CC(=O)Nc1cc2c(Nc3ccc(Br)cc3F)ncnc2cc1OCCNC(=O)C(C)N(C)C (stereo not shown) [Example 58]
RESULT: 395

QUERY: # IC50 lookup, item C=CC(=O)Nc1cc2c(Nc3ccc(Br)cc3F)ncnc2cc1OCCNC(=O)CN1CCCCC1 [Example 101]
RESULT: 76

QUERY: # IC50 lookup, item C=CC(=O)Nc1cc2c(Nc3ccc(OCc4cccnc4)c(Cl)c3)ncnc2cc1OCCNC(C)=O [Example 130]
RESULT: 987

QUERY: # IC50 lookup, item C=CC(=O)Nc1cc2c(Nc3cc(Cl)c(Br)cc3F)ncnc2cc1OCCNC(C)=O [Example 133]
RESULT: 64

QUERY: # IC50 lookup, item C=CC(=O)Nc1cc2c(Nc3ccc(Br)cc3F)ncnc2cc1OCCNC(=O)CC [Example 27]
RESULT: 50

QUERY: # IC50 lookup, item C=CC(=O)Nc1cc2c(Nc3ccc(Br)c(Cl)c3F)ncnc2cc1OCCNC(=O)NCCC [Example 169]
RESULT: 67

QUERY: # IC50 lookup, item C=CC(=O)Nc1cc2c(Nc3ccc(Br)cc3F)ncnc2cc1OCCNC(=O)C(C)CN(C)C (stereo not shown) [Example 74]
RESULT: 658

QUERY: # IC50 lookup, item C=CC(=O)Nc1cc2c(Nc3ccc(Br)cc3F)ncnc2cc1OCCNC(=O)C=NOC [Example 73]
RESULT: 589

QUERY: # IC50 lookup, item C=CC(=O)Nc1cc2c(Nc3ccc(Br)cc3F)ncnc2cc1OCC(C)NC(C)=O (stereo not shown) [Example 81]
RESULT: 896

----------
- Tested on: breast cancer cell line, SK-Br3
- protocol_description: Inhibitory effect on growth of cancer cell line SK-Br3, SRB
- Format: cell-based
- assay_context: Homo sapiens, SK-BR-3, 72 h, overexpressed EGFR2 (HER-2)
quantity: pIC50
// pIC50: -log10(molar conc.)

                                   molecule  quantity  data_value
0  C=CC(=O)Nc1cc2c(Nc3ccc(Br)c(Cl)c3F)ncnc2cc1OCCNC(=O)CN(CC)CC [Example 151]     pIC50        6.82
1  C=CC(=O)Nc1cc2c(Nc3ccc(Br)cc3F)ncnc2cc1OCCNC(=O)CN1CC=CC1 [Example 108]     pIC50        6.99
2  C=CC(=O)Nc1cc2c(Nc3ccc(Br)cc3F)ncnc2cc1OCCNC(=O)C(C)C [Example 48]     pIC50        7.15
3  C=CC(=O)Nc1cc2c(Nc3ccc(Br)cc3F)ncnc2cc1OCCNC(=O)CCN(CC)CC [Example 59]     pIC50        6.95
4  C=CC(=O)Nc1cc2c(Nc3ccc(Br)c(Cl)c3F)ncnc2cc1OCCNC(=O)CCN1CCCCC1 [Example 147]     pIC50        6.90

Now take the following molecule into account.
QUERY: Quick check: pIC50 on breast cancer cell line, SK-Br3, item C=CC(=O)Nc1cc2c(Nc3ccc(Br)cc3F)ncnc2cc1OCCNC(=O)C(F)F [Example 22] ?
RESULT: 7.04

----------
- Tested on: breast cancer cell line, SK-Br3
- protocol_description: Inhibitory effect on growth of cancer cell line SK-Br3, SRB
- Type: cell-based
- assay_context: Homo sapiens, SK-BR-3, 72 h, overexpressed EGFR2 (HER-2)
pIC50 values for the compounds below.
// pIC50: -log10(molar conc.)

In [3]: df
Out[3]:
                                   compound  data_value
0  C=CC(=O)Nc1cc2c(Nc3ccc(Br)cc3F)ncnc2cc1OCC1=NCCO1        6.24
1  C=CC(=O)Nc1cc2c(Nc3ccc(Br)cc3F)ncnc2cc1OCCNC(=O)CN1CCOCC1        6.40
2  C=CC(=O)Nc1cc2c(Nc3ccc(Br)cc3F)ncnc2cc1OCCNC(=O)C(=C)C        6.61
3  C=CC(=O)Nc1cc2c(Nc3ccc(F)cc3F)ncnc2cc1OCCNC(=O)CN(C)C        6.25
4  C=CC(=O)Nc1cc2c(Nc3cc(Cl)c(Cl)cc3F)ncnc2cc1OCCN(C)C        6.74
5  C=CC(=O)Nc1cc2c(Nc3ccc(Br)cc3F)ncnc2cc1OC[C@@H](C)NC(C)=O        7.22

QUERY: # pIC50 lookup, item C=CC(=O)Nc1cc2c(Nc3ccc(Br)cc3F)ncnc2cc1OCC(C)NC(=O)NCCC (stereo not drawn)
RESULT: 6.75

QUERY: # pIC50 lookup, item C=CC(=O)Nc1cc2c(Nc3ccc(Br)cc3F)ncnc2cc1OCCNC(=O)CS(C)(=O)=O
RESULT: 7.17

QUERY: # pIC50 lookup, item C=CC(=O)Nc1cc2c(Nc3ccc(Br)cc3F)ncnc2cc1OCCNC(=O)CNC
RESULT: 6.03

QUERY: # pIC50 lookup, item C=CC(=O)Nc1cc2c(Nc3ccc(Br)cc3F)ncnc2cc1OCCNC(=O)C1CCCN1 (stereo not drawn)
RESULT: 5.00

QUERY: # pIC50 lookup, item C=CC(=O)Nc1cc2c(Nc3ccc(Br)c(Cl)c3F)ncnc2cc1OCCNC(=O)OC
RESULT: 6.70

QUERY: # pIC50 lookup, item C=CC(=O)Nc1cc2c(Nc3ccc(Br)cc3F)ncnc2cc1OCC(C)(C)NC(=O)CN(C)C
RESULT: 6.62

QUERY: # pIC50 lookup, item C=CC(=O)Nc1cc2c(Nc3ccc(Br)cc3F)ncnc2cc1OCC1CCN(C(=O)CN(C)C)CC1
RESULT: 6.48

QUERY: # pIC50 lookup, item C=CC(=O)Nc1cc2c(Nc3ccc(Br)cc3F)ncnc2cc1OCCNC(=O)NCC
RESULT: 7.42

QUERY: # pIC50 lookup, item Clc1ccc(Nc2nnc(Cc3ccncc3)c3ccccc23)cc1 [Control 1, PTK787, reference compound]
RESULT: 5.00
